# T/C annotations
Test system: CD2F1 mice, L1210 leukemia ip, survival T/C
test.details: NCI In Vivo Anticancer Drug Screen. Data for tumor model L1210 Leukemia (intraperitoneal) in CD2F1 (CDF1) mice
particulars: endpoint: mean survival time; dose: 400.0 mg/kg/injection; schedule: Q04DX003 (ip); vehicle: saline with Tween-80; higher = longer survival
Toxic doses and inconclusive results are not listed.

In [3]: df
Out[3]:
                           compound                               measured_on   endpoint_result
0  O=c1cc(C(Br)(Br)Br)[nH]c2ccccc12  CD2F1 mice, L1210 leukemia ip, survival T/C   99 % of control
1             O=C(CCl)Nc1cccc(Cl)c1  CD2F1 mice, L1210 leukemia ip, survival T/C  104 % of control

Query (compound): O=C(c1ccccc1)N(CCCCl)C(=O)N(CCCCl)C(=O)c1ccccc1 ; field requested: T/C
108 % of control

Query (compound): O=C(O)c1cccc(-c2c3ccc(=O)cc-3oc3cc(O)ccc23)c1 ; field requested: T/C
96 % of control

Query (compound): O=C(Oc1cccc(O)c1)c1ccccc1 ; field requested: T/C
101 % of control
